# assayed.system: UniProtKB Q06187
# Sequence (Q06187 402-655 limits assumed): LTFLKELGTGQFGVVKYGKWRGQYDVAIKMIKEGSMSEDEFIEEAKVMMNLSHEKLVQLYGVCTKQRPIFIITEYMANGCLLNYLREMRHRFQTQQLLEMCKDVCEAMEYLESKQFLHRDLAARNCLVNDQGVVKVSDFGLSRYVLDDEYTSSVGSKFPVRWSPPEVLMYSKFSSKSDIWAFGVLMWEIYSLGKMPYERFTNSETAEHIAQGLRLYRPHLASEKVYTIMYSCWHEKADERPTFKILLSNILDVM
# experiment: biochemical
# condition.details: read-out: BTK inhibition (%), 0.75 uM BTK, […] probe 3l, 15 min preincubation
assay.endpoint: inhibition at 10 µM

Check out these entries, answers already filled in.
[Q] Give reported inhibition at 10 µM value for O=C(O)Cn1nnc(-c2cc(N3CCC(Oc4cc(F)ccc4Br)CC3)no2)n1
[A] 4.1%

[Q] Give reported inhibition at 10 µM value for COc1ccc(CC2c3cc(OC)c(OC)cc3CC[N+]2(C)CCC(=O)OCCCCCOC(=O)CC[N+]2(C)CCc3cc(OC)c(OC)cc3C2Cc2ccc(OC)c(OC)c2)cc1OC (stereo not drawn)
[A] -16.3%

[Q] Give reported inhibition at 10 µM value for COc1cc2c(cc1OC)[C@H]1[C@@H](C)c3ccc(OC)c(OC)c3CN1CC2
[A] -27%

[Q] Give reported inhibition at 10 µM value for C[C@H]1[C@H](C)CC[C@]2(C(=O)O)CC[C@]3(C)C(=CC[C@@H]4[C@@]5(C)CC[C@H](O)C(C)(C)[C@@H]5CC[C@]43C)[C@H]12
[A] 10.9%

I need inhibition at 10 µM for every entry listed below, if you could help.
1. CCOC(=O)/C=C/c1ccc(OC)cc1
2. CC(C)(O)[C@H]1CC[C@@](C)([C@H]2[C@@H](O)C[C@@]3(C)[C@@H]4C[C@H](O[C@@H]5O[C@H](CO)[C@@H](O)[C@H](O)[C@H]5O)[C@H]5C(C)(C)[C@@H](O[C@@H]6OC[C@@H](O)[C@H](O)[C@H]6O)CC[C@@]56C[C@@]46CC[C@]23C)O1

[A]
1. -3.1%
2. 5.4%
